System: ATP;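 further: ATP exposure 15 min at 22 °C before imaging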
methodSummary: switch fluorescence ratio, 500 uM ATP over buffer (Cy3 cluster intensity, sum of 5 cycles each) (fold (ratio)); higher = stronger signal-on switching upon ATP binding; sequences stand for … in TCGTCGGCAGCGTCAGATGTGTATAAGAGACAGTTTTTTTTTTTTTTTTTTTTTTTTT…TC
measurementConditions: aptamer strand: ATP DNA aptamer (quencher-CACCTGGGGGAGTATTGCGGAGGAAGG + anchor), 100 nM annealed; ATP concentration: 500 uM
# maps each entry to its switch fluorescence ratio
Note: the reply should be a number with no unit written.

Below, each entry is followed by its recorded switch fluorescence ratio result.
GGCTGTTATT    0.986
AAGGTTGGAT    0.987
TCGGGTTTGG    1.01

stdin: Identify measured switch fluorescence ratio corresponding to `TTGGATGTGT`
stdout: 0.941

stdin: Let me know recorded switch fluorescence ratio for `TTAAGGGAAG` , thanks.
stdout: 1.02

stdin: Tell me its switch fluorescence ratio given `TTTCGAGTTG` as the entry.
stdout: 0.981

stdin: Read off the recorded switch fluorescence ratio for `ATCGCAGGCG`
stdout: 1.04

stdin: Indicate the recorded switch fluorescence ratio value for this sequence: `TCGGATAGGT`
stdout: 1.02

* * *

System: ATP;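 further: ATP exposure 15 min at 22 °C before imaging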
methodSummary: switch fluorescence ratio, 500 uM ATP over buffer (Cy3 cluster intensity, sum of 5 cycles each) (fold (ratio)); higher = stronger signal-on switching upon ATP binding; sequences stand for … in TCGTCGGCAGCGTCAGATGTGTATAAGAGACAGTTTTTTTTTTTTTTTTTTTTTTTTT…TC
measurementConditions: aptamer strand: ATP DNA aptamer (quencher-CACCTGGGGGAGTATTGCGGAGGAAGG + anchor), 100 nM annealed; ATP concentration: 500 uM
Quick rule for you: switch fluorescence ratio at 1 or higher means Satisfied, lower means Not satisfied.

Example entries begin here.
CGTATTACAC    Satisfied
CGGCGTGGGG    Satisfied
CTGCGGGGGA    Satisfied

stdin: Determine whether this sequence has switch fluorescence ratio no lower than 1: `AATTCCGAGG`
stdout: Satisfied

stdin: Item `CCGTGCTCTA` with switch fluorescence ratio of 1 or above?
stdout: Satisfied

stdin: Given `CGTCAACAGG` , state whether its switch fluorescence ratio is at least 1.
stdout: Satisfied

stdin: State whether the measured switch fluorescence ratio reaches 1, counting equality as reaching it, for `AAACATACCT`
stdout: Satisfied

stdin: Record `TTAGGACGGC` ; criterion: switch fluorescence ratio no lower than 1. Met?
stdout: Not satisfied

stdin: Given the entry `TGGGGTCGTG` , answer whether its switch fluorescence ratio meets or surpasses 1.
stdout: Not satisfied

stdin: Determine whether this sequence has switch fluorescence ratio no lower than 1: `ACTTGCGCAG`
stdout: Satisfied

* * *

Test system: ATP;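 further: ATP exposure 15 min at 22 °C before imaging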
methodSummary: switch fluorescence ratio, 500 uM ATP over buffer (Cy3 cluster intensity, sum of 5 cycles each) (fold (ratio)); higher = stronger signal-on switching upon ATP binding; sequences stand for … in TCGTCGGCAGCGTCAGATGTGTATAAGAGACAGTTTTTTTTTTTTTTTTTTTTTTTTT…TC
measurementConditions: aptamer strand: ATP DNA aptamer (quencher-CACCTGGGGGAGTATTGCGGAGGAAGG + anchor), 100 nM annealed; ATP concentration: 500 uM
readoutName: switch fluorescence ratio
A bare number is all that is needed in reply.

stdin: Fill in switch fluorescence ratio for record `TGATCGTG`
stdout: 1.01

stdin: Read the entry `TGCGAATGAG` and write its reported switch fluorescence ratio.
stdout: 0.993

stdin: # return recorded switch fluorescence ratio for entry `CTTGGTTCGA`
stdout: 0.978

stdin: Provide switch fluorescence ratio value for the following sequence: `TTTTAATTTA`
stdout: 1.03

stdin: Return value of switch fluorescence ratio for input `GCGCAGGCTT` , no commentary.
stdout: 0.986

stdin: Identify switch fluorescence ratio associated with the sequence `TCTCATTCTT`
stdout: 1.03

stdin: For `GTATTCATTT` , write its switch fluorescence ratio.
stdout: 0.982

stdin: Indicate the recorded switch fluorescence ratio value for this sequence: `GGTTCGGGGG`
stdout: 0.997

stdin: Determine its reported switch fluorescence ratio: `TTTCGTATTC`
stdout: 1

* * *

Let's look at some sequences and their measured switch fluorescence ratio.
Test system: ATP;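 further: ATP exposure 15 min at 22 °C before imaging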
methodSummary: switch fluorescence ratio, 500 uM ATP over buffer (Cy3 cluster intensity, sum of 5 cycles each) (fold (ratio)); higher = stronger signal-on switching upon ATP binding; sequences stand for … in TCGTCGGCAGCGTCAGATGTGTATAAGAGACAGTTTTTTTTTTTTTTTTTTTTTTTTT…TC
measurementConditions: aptamer strand: ATP DNA aptamer (quencher-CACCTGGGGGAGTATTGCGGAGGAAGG + anchor), 100 nM annealed; ATP concentration: 500 uM
// print number alone

stdin: In one line, give reported switch fluorescence ratio of the entry `TTCAAAAGGG` .
stdout: 1.05

stdin: Check the records and state switch fluorescence ratio for `GACGGTTCGT`
stdout: 1.01

stdin: Supply measured switch fluorescence ratio of `TGGAGGGTCG` in your reply.
stdout: 1.02

stdin: Output measured switch fluorescence ratio for this item: `TCTTTGCGCG`
stdout: 1.02

stdin: Give reported switch fluorescence ratio value for `AACATAGGTG`
stdout: 1.14

stdin: Provide only the value of recorded switch fluorescence ratio for `GTAGGGCGGT`
stdout: 0.955

* * *

Tested on: ATP;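 further: ATP exposure 15 min at 22 °C before imaging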
methodSummary: switch fluorescence ratio, 500 uM ATP over buffer (Cy3 cluster intensity, sum of 5 cycles each) (fold (ratio)); higher = stronger signal-on switching upon ATP binding; sequences stand for … in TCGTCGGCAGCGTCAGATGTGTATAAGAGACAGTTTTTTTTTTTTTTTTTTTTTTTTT…TC
measurementConditions: aptamer strand: ATP DNA aptamer (quencher-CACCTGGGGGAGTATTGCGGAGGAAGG + anchor), 100 nM annealed; ATP concentration: 500 uM
Cut-off 1 on switch fluorescence ratio, inclusive. At or above means 1; below means -1.

TGGGTAAGGC    -1
TTGGACTGGG    -1
TATTGGTAGG    -1
GGCTCAATTT    -1
CAGGAAAGCT    1

stdin: Item `TGGCAGAGGC` with switch fluorescence ratio of 1 or above?
stdout: 1

stdin: In plain terms: is recorded switch fluorescence ratio at least 1 for `TCGCCATCCT` ?
stdout: 1

stdin: Hi team, for `GAAGGGATTT` , is the recorded switch fluorescence ratio at or above 1?
stdout: 1

stdin: Does switch fluorescence ratio meet or surpass 1 for `GTACGACAAG` ?
stdout: 1

stdin: Hi team, for `CCTGGTACTG` , is the recorded switch fluorescence ratio at or above 1?
stdout: 1

* * *

Consider the following sequences and their measured switch fluorescence ratio readings.
Test system: ATP;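 further: ATP exposure 15 min at 22 °C before imaging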
methodSummary: switch fluorescence ratio, 500 uM ATP over buffer (Cy3 cluster intensity, sum of 5 cycles each) (fold (ratio)); higher = stronger signal-on switching upon ATP binding; sequences stand for … in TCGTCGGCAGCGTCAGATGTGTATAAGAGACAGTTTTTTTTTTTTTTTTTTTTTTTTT…TC
measurementConditions: aptamer strand: ATP DNA aptamer (quencher-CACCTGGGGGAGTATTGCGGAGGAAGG + anchor), 100 nM annealed; ATP concentration: 500 uM
Lab note: record the figure alone, no unit after it.

In the examples that follow, each entry is paired with its recorded switch fluorescence ratio.
TCTTTGGACT    1
GGGTATCAG    0.955
AGTGTAGAGC    0.975
CGGTTATGGT    0.99
ATTAAAAGTT    0.984

Now consider the entry below.
stdin: Identify switch fluorescence ratio associated with the sequence `CATTCTCAAT`
stdout: 1.17

* * *

Overview of reported switch fluorescence ratio across a group of sequences:
Tested on: ATP;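 further: ATP exposure 15 min at 22 °C before imaging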
methodSummary: switch fluorescence ratio, 500 uM ATP over buffer (Cy3 cluster intensity, sum of 5 cycles each) (fold (ratio)); higher = stronger signal-on switching upon ATP binding; sequences stand for … in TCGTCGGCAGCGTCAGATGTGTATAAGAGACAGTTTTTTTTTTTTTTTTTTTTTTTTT…TC
measurementConditions: aptamer strand: ATP DNA aptamer (quencher-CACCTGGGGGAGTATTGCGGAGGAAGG + anchor), 100 nM annealed; ATP concentration: 500 uM
# output: bare number, no unit

CGGAGTTACA    1.07
GATGGCAGCG    1.05
GAATTTGGGG    0.961
ATATTACGGG    1.03
TCTCCGTGGG    1.52
CATTATGTTG    0.969
TAATCTGGCG    1.03
TACATTTAGG    0.996

stdin: Write down switch fluorescence ratio measured for item `CTTCTTTGTG`
stdout: 0.996

stdin: Give the reported switch fluorescence ratio for this sequence. `AAGGGGCTCT`
stdout: 0.993

stdin: Specify measured switch fluorescence ratio for `CGGGGGGTGT` .
stdout: 1.01

stdin: Indicate the recorded switch fluorescence ratio value for this sequence: `CAAATAAATT`
stdout: 0.989

stdin: Look up and report measured switch fluorescence ratio for this entry: `TGGTGTCAGC`
stdout: 1.02

stdin: Answer with reported switch fluorescence ratio of `ACGGTAAGTG`
stdout: 1.02

stdin: Using known records, supply switch fluorescence ratio for `ATTATCTTGG`
stdout: 1.05

stdin: Provide switch fluorescence ratio value for the following sequence: `ATAGGATCTT`
stdout: 0.996

stdin: Find the measured switch fluorescence ratio of `AAATGAGATT` and report it.
stdout: 1
